Target: T1, Cbx7.V1 (human, UniProt O95931 7-66, E8D (back-mutant printed as D8E) | Q9D (back-mutant printed as D9Q) | V10I …)
T1 construct: also called Cbx7.5; source: E. coli BL21(DE3), purified (Ni-NTA); tags removed with TEV protease
T1 sequence: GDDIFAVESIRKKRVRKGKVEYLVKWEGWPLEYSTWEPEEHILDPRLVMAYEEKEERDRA
Measurement description: fluorescence polarisation; 0.5 nM FITC-labeled peptide, chromodomain serially diluted (wild type 200-0.2 µM; Cbx7.V1 50 µM-50 nM); 25 mM HEPES pH 7.5, 150 mM NaCl, 1 mM DTT, 0.01% TritonX-100; 30 min at 25 °C; one-site total binding model
Assay context: both partners purified
Can you tell me Kd for the items I'm about to list?
Give the value; after it, write the unit.

>>> measurement("ARTKQTARKSTGGKAPR (trimethyl-lysine at K9 (Kme3); fluorescein isothiocyanate (FITC) on the N-terminus, histone H3 N-terminal tail, residues 1-17; source: synthetic peptide (GenScript)) [FITC-labeled H3K9me3 peptide]")
"7.2 µM"

Asked: Identify measured Kd associated with KQLATKAARKSAPATGGVK (trimethyl-lysine at K27 (Kme3); fluorescein isothiocyanate (FITC) on the N-terminus, histone H3 tail, residues 18-36; source: synthetic peptide (GenScript)) [FITC-labeled H3K27me3 peptide]
Given back: 4.2 µM
